The measurements presented in this section are drawn from patent US6011070A.

molecular target: dopamine transporter (Rattus norvegicus, UniProt P23977); construct: from tissue; assay: Inhibition of dopamine reuptake (Example 4); assay type: biochemical; conditions: read-out: DA Uptake, inhibition of dopamine reuptake IC50
Sequence (P23977 whole entry): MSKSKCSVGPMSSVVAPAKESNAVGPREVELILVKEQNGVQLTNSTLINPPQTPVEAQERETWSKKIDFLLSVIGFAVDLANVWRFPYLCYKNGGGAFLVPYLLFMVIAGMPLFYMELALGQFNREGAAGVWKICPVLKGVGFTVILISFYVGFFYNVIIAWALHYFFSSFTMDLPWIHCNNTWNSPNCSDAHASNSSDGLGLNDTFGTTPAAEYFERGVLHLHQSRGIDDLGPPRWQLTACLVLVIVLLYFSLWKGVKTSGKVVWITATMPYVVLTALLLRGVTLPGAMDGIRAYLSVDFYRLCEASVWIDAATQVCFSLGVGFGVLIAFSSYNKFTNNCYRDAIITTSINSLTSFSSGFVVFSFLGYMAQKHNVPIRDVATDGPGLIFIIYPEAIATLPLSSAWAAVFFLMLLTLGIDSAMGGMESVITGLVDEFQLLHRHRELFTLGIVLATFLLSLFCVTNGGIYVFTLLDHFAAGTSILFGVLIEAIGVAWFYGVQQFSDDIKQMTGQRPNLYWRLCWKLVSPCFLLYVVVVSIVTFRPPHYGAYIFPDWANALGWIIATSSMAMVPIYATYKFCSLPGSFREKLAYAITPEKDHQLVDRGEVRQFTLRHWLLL
Measurement Type: IC50 (nM)
Could you give me the number in nM? Just the number is fine.

Prompt: State its IC50 for this compound: CN(C)C1CC(c2ccc(Cl)c(Cl)c2)c2ccccc21 (stereo not shown) [Compound 1]
Response: 56

* * *

Catalogue of Maximal Effect Relative to Cocaine values
System: male Swiss-Webster mice
Assay: Dose response study of induced locomotor stimulation (Digiscan), 1 h session (Example 2)
Format: in vivo, Swiss-Webster mice (Hsd:ND4)
Conditions: IP, locomotor activity
Procedure: A dose response study of induced locomotor stimulation was conducted according to the following procedure. The study was conducted using a 16 or 32 Digiscan locomotor activity testing chambers (40.5×40.5×30.5 cm) housed in sets of two, within sound-attenuating chambers. […] In all studies, horizontal activity (interruption of photocell beams) was measured for 1 hour within 10 minute periods. […]
Reply with just the number.

[
  {
    "Molecule": "CCN(C)C1CC(c2ccc(Cl)c(Cl)c2)c2ccccc21 (stereo not shown)",
    "Maximal Effect Relative to Cocaine": 0.93
  },
  {
    "Molecule": "CCCN(C)C1CC(c2ccc(Cl)c(Cl)c2)c2ccccc21 (stereo not shown)",
    "Maximal Effect Relative to Cocaine": 0.51
  },
  {
    "Molecule": "CN(C)C1CC(c2ccc(Cl)c(Cl)c2)c2ccccc21 (stereo not shown)",
    "Maximal Effect Relative to Cocaine": 0.82
  }
]

Prompt: Identify measured Maximal Effect Relative to Cocaine obtained with male Swiss-Webster mice for CCNC1CC(c2ccc(Cl)c(Cl)c2)c2ccccc21 (stereo not shown) .
Response: 1.07
